These data points were gathered from PubChem BioAssay (NCATS).

Give Z-AUC for every item shown.
Assay: qHTS drug screen for cell cycle checkpoint inhibitors in PARPi-resistant BRCA-mutant ovarian cancer cell lines. (AID 1963452)
Settings: PEO1/OlaR viability, CellTiter-Glo luminescence, 96 h; measured here: PEO4 Z-AUC; stronger effect = lower value
One number for each entry.

*Q* Returns the measured Z-AUC for the input molecule. Input: C=C1/C(=C/C=C2\CCCC3(C)[C@@H]([C@H](C)/C=C/C=C/C(O)(CC)CC)CC[C@@H]23)C[C@@H](O)C[C@@H]1O (some centres undefined)
*A* -0.444

Report Z-AUC for each item below.
1. CN(Cc1ccccc1)C(=O)c1ccc(S(=O)(=O)Nc2ccccc2)cc1
2. CNS(=O)(=O)Nc1nccc(Cc2c(C)c3ccc(Oc4ncccn4)cc3oc2=O)c1F
3. Cc1cc(-n2c(=O)ccc3cnc4[nH]ccc4c32)ccc1F
4. CN1C(=O)N(c2cc(Cl)cc(Cl)c2)C(=O)[C@]12CN(Cc1cc(C(=O)O)cs1)C[C@H]2c1ccc(C#N)cc1
5. Cc1[nH]nc2ncc(C(=O)N3CCC[C@H]3c3ccc(Cl)cc3)cc12
6. CC[C@@]1(O)C(=O)OCc2c1cc1n(c2=O)Cc2c-1nc1ccccc1c2CCNC(C)C

*A*
[0.744, -1.84, 0.281, 0.897, -0.0502, -1.65]

Report Z-AUC for each item below.
1. Cc1cc(O)c(-c2ccc([C@@H](C)CN)cc2)c2c1[nH]c(=O)c1sccc12
2. O=C(/C=C/c1ccc(/C=C/C(=O)Nc2ccc(C3=NCCN3)cc2)cc1)Nc1ccc(C2=NCCN2)cc1

*A*
[-2.98, 0.581]

====

Molecular target: Cytochrome P450 3A4 (Homo sapiens) (UniProt P08684)
Sequence (P08684 whole entry, looked up): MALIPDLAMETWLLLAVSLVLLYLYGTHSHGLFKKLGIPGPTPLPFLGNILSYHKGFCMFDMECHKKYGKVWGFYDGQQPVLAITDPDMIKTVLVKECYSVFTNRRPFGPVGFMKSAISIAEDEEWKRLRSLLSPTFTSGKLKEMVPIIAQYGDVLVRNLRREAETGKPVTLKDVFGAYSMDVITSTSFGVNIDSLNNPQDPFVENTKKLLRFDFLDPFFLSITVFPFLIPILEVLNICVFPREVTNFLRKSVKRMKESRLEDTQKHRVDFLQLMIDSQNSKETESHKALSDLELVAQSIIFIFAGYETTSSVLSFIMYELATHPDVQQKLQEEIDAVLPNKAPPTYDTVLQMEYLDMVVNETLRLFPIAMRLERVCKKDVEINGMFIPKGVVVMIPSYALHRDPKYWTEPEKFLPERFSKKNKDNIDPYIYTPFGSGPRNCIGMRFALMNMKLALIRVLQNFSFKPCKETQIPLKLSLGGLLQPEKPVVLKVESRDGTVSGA
Experiment: qHTS Assay for Activators of Cytochrome P450 3A4 (AID 885); note: nearly all actives have a fitted effect of over 65% in size
Settings: recombinant CYP3A4, Luciferin-PPXE luminescence, 60 min; series mostly up to 57.1 µM
Protocol: NIH Molecular Libraries Screening Centers Network [MLSCN] NIH Chemical Genomics Center [NCGC] The P450 gene superfamily is involved in the metabolism and clearance of xenobiotics. […] The luciferin is then measured by luminescence after the addition of a luciferase detection reagent. […] Inhibitors and some substrates limit the production of luciferin, and decrease measured luminescence; activators increase the production of luciferin and luminescence. […]
Calls of active or inactive are those of the source. Calls come from the whole dose curve; as a rule, active = well fitted activation curve with a large enough effect; inconclusive = small, poorly fitted or top-dose-only effect; inactive = no such curve, though single readings can be large or run the other way.
// classify into true (1) for active, false (0) for inactive

Illustrative cases are given below, each with its answer.
*Q* Recorded test outcome, item "Cc1noc(C)c1-c1cncnc1NCCN1CCOCC1"
*A* false (0)

*Q* Recorded test outcome, item "COc1ccc(C(=O)N2CCC[C@@]3(CCN(Cc4ccc(C#N)cc4)C3)C2)cc1"
*A* false (0)

*Q* Recorded test outcome, item "CN(Cc1ccco1)c1ncnc2ccc(-c3ccoc3)cc12"
*A* false (0)

Next:
*Q* Recorded test outcome, item "Cn1c(=O)c(-c2cccs2)nc2cnc(N3CCNCC3)nc21"
*A* false (0)

*Q* Recorded test outcome, item "CC(=O)N1CCC2(CCCN(C(c3ccccc3)c3ccccc3)C2)CC1"
*A* false (0)

*Q* Recorded test outcome, item "O=C(c1cnccn1)N1CCC[C@@]2(CCN(c3ccncc3)C2)C1"
*A* false (0)

*Q* Recorded test outcome, item "Cc1nc2cnc(N3CCOCC3)nc2n(C2CC2)c1=O"
*A* false (0)
